Cited source for all entries: the NIST ThermoML archive (doi:10.1021/je300487n)

Measured mass density, listed per entry.
condition-info: 298.15 K; 101.33 kPa; Liquid; Vibrating tube method
# unit: kg/m3 | format: bare number

{"compound": "CC(=O)O.CCN(C)C [N,N-dimethylethanamine acetate]", "value-reported": 1016.1}
{"compound": "CC(=O)[O-].CCCCn1cc[n+](C)c1 [1-butyl-3-methylimidazolium acetate]", "value-reported": 1052.3}
{"compound": "CC(=O)[O-].CCn1cc[nH+]c1 [1-ethyl-1H-imidazolium acetate]", "value-reported": 1034.2}

Data point: CC(=O)[O-].CCCC[N+]1(C)CCCC1 [1-butyl-1-methylpyrrolidinium acetate] ; mass density = 1021.2
